Tested on: HT29 colon
protocol.summary: NCI-60 one-dose screen, 48 h (100 = growth as untreated, 0 = no growth, -100 = all killed)
assay.conditions: 10 µM unless noted
This is part of a sample that, as a whole, favours compounds with a hit. Of some 83,000 tested, about 20% had one in any assay.
measurement.name: growth (%)
I only need the number, in %, no unit after it.

compound	growth (%)
Cn1nc(-c2ccc(Cl)cc2)nc2c(=O)n(C)c(=O)nc1-2	-77.3

Ask | Field request: growth | item: CCCCCCCCCCCCCCCCCCOc1ccccc1CC(=O)OCC[N+]1(C)CCCCC1
Reply | 31.7

Ask | Now the same for N#Cc1nn(-c2ccccn2)c(N)c1C#N
Reply | 86.4

Ask | Now the same for COc1ccc(-c2cc(-c3ccc(N(C)C)cc3)nc(NC(=O)c3cccnc3)n2)cc1
Reply | 108

Ask | Now the same for N#Cc1c(-c2ccc(Cl)cc2)nc(NN=Cc2cccc(Cl)c2)nc1N1CCOCC1
Reply | 40.4

Ask | Now the same for O=S(=O)(Nc1ccc(Br)cc1)c1ccc(-c2cnc(C3CC3)o2)cc1
Reply | 13.9

Ask | Now the same for CNC(=O)c1cc(Oc2ccc3nc(NC(=O)NC(C)C)sc3c2)ccn1
Reply | 33.3

Ask | Now the same for COc1cc(C2=Nc3c(N)nc(N)nc3NC(c3cccc(Nc4ccnc5cc(C(F)(F)F)ccc45)c3)C2)cc(OC)c1OC (centres undefined)
Reply | 45.5

Ask | Now the same for C#C[C@]1(O)CC[C@H]2[C@@H]3CC=C4c5sc(-c6cccc(C)c6)nc5CC[C@]4(C)[C@H]3CC[C@@]21C
Reply | 38.8

Ask | Now the same for Oc1cccc(-c2nc(-c3n[nH]c(=S)n3-c3ccccc3)cc3c2[nH]c2ccccc23)c1
Reply | 6.61

Ask | Now the same for CCOC(=O)c1c(Nc2nc3ccccc3s2)sc2c1CCC(=O)C2
Reply | 55.4

Ask | Now the same for CN(C)CCOc1nc2c3cc([N+](=O)[O-])ccc3nn2c2ccccc12
Reply | 26.1

Ask | Now the same for Cc1[nH]c(C(=O)Nc2ccc(C(N)=O)cc2OC(C)C)c(Cl)c1Cl
Reply | 111

Ask | Now the same for CCN1C(=O)N(CC)C2C1NN=c1s/c(=C\c3ccccc3)c(=O)n12 (centres undefined)
Reply | 3.09

Ask | Now the same for O=C1c2ccccc2C(=O)c2cc(Cn3c[n+](Cc4ccc5ccccc5c4)c4ccccc43)ccc21
Reply | 51.5

Ask | Now the same for CCOC(=O)/C=C1\S/C(=N\Nc2cc(=O)[nH]c3ccc(OC)cc23)N(c2ccccc2)C1=O
Reply | 108

Ask | Now the same for CCCCN(CCC#N)C(N)=O
Reply | 114

---

Test system: U251 CNS
protocol.summary: NCI-60 one-dose screen, 48 h (100 = growth as untreated, 0 = no growth, -100 = all killed)
assay.conditions: 10 µM unless noted
This is part of a sample that, as a whole, favours compounds with a hit. Of some 83,000 tested, about 20% had one in any assay. Calls of active or inactive are those of the source. Rule for the calls: active = growth percent below 10; inactive = the rest.
measurement.name: growth

Solved entries (count: 3):
compound	target.under.test	measurement.name	reading
C=C(C)[C@@H]1CC[C@]2(COCCCNCCCN)CC[C@]3(C)[C@H](CC[C@@H]4[C@@]5(C)CC[C@H](OCCCN)C(C)(C)[C@@H]5CC[C@]43C)[C@@H]12	U251 CNS	growth	-94.3% (active)
COc1cc(C2=Nc3c(N)nc(N)nc3NC(c3cccc(Nc4ccnc5cc(C(F)(F)F)ccc45)c3)C2)cc(OC)c1OC (centres undefined)	U251 CNS	growth	61% (inactive)
COc1ccc(S(=O)(=O)N(C)c2oc(-c3ccc(Cl)cc3)nc2C#N)cc1	U251 CNS	growth	81.1% (inactive)

Ask | Field request: growth | item: Nc1c(C(=O)c2ccc(Cl)cc2)sc(Nc2ccccc2)c1-c1nc2ccccc2s1
Reply | 4.94% (active)
